Cited source for all entries: patent US20210024639A1

# measured.on: T1, native human MET on living human cells (human, UniProt P08581 25-1390)
# T1 construct: whole, on cells; also called Human cells (A549); HPAF-II
# assay.text: flow cytometry, A549 cells
Here, each record is paired with measured EMAX (% relative to control) data.
Return type: number; implicit unit %.

Previously resolved entries follow.
[[record]]
binder = "chimeric llama-human IgG1 mAb 71G2 (antibody, V domains shown) VH: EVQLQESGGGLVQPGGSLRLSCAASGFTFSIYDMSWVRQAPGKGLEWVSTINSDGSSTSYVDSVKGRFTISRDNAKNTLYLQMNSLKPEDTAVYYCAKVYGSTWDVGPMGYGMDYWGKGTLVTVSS VL: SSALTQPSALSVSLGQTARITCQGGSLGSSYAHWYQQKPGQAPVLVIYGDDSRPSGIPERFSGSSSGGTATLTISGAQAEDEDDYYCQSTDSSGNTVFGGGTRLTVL"
units = "%"
endpoint_value = 144

[[record]]
binder = "chimeric llama-human IgG1 mAb 72F8 (antibody, V domains shown) VH: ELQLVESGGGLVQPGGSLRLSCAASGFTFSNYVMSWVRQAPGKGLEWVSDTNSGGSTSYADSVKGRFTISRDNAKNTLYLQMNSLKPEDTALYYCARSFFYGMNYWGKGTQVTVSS VL: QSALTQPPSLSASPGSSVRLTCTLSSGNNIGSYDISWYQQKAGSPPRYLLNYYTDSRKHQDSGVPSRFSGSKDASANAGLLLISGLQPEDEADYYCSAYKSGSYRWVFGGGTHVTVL"
units = "%"
endpoint_value = 156


For the next question, use this binder.
Entry chimeric llama-human IgG1 mAb 76H10 (antibody, V domains shown) VH: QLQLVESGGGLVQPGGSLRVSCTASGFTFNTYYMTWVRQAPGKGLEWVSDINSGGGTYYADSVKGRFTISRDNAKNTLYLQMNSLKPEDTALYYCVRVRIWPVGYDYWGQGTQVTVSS VL: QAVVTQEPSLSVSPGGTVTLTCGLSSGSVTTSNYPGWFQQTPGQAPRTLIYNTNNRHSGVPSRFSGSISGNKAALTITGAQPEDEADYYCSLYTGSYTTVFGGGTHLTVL , EMAX (% relative to control) reported as 130
